molecular target: human IRAK4 FL (Full Length) (Homo sapiens (Human), UniProt Q9NWZ3); assay: IRAK4 Enzymatic DELFIA Assay, Protocol A; format: biochemical; details: human IRAK4 FL, 0.6 mM ATP (KM); read-out: IRAK4 DELFIA Protocol A IC50
Sequence (Q9NWZ3 whole entry): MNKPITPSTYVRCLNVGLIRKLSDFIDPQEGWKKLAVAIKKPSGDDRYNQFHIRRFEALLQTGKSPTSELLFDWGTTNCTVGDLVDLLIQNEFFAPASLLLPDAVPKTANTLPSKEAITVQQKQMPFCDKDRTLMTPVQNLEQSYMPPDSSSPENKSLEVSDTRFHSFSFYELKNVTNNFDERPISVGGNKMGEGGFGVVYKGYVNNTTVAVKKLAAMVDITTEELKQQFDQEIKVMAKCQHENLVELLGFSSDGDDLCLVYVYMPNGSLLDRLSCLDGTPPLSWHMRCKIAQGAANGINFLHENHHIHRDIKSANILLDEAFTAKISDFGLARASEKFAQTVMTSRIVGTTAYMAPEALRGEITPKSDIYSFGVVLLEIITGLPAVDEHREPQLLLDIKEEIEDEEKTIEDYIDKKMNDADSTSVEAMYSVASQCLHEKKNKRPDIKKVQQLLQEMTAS
pIC50: −log10 of the molar value.
# key: entry, value: pIC50
readout kind: pIC50

>>> reported_value("COc1cc2c(OC[C@@H]3C[C@@](F)(CCF)C(=O)N3)nccc2cc1C(N)=O")
8.39
>>> reported_value("CC[C@@H]1[C@H](F)C(=O)N[C@@H]1COc1nccc2cc(C(N)=O)c(OC(C)C)cc12")
9.40
>>> reported_value("Cc1nc(-c2cnc(OC[C@@H]3CCC(=O)N3)c3cc(OC(C)C)c(C(N)=O)cc23)c[nH]1")
7.46
>>> reported_value("CC(C)Oc1cc2c(OC[C@@H]3CCC(=O)N3)ncc(C#N)c2cc1C(N)=O")
6.53

The measured values listed here are drawn from patent US10329302B2.
